- Method Notes: Pharmacokinetic test on mice
- Assay type: in vivo, male ICR mice
- Condition Set: male, ICR, plasma; mouse, intravenous injection 3 mg/kg
Experimental Readout: half-life (h)
Please give a number only; it is taken to be in h.

Record excerpt, results attached:
INSERT INTO assay_data (compound, result_value) VALUES
  ('O=c1[nH]cc(-c2cc([C@H]3C[C@@H]3C(F)F)c(Cl)nn2)c(=O)[nH]1 [Reference compound 2, reference compound]', 1.25),
  ('O=c1[nH]cc(-c2cc([C@H]3C[C@@H]3COC(F)(F)F)c(Cl)nn2)c(=O)[nH]1', 3.72);

Data request: Determine its reported half-life: Cc1nnc(-c2c[nH]c(=O)[nH]c2=O)cc1[C@H]1C[C@@H]1C(F)F [Reference compound 1, reference compound]
Data returned: 1.99

====

Readings of fraction unbound at 5 h, 1 μM for the listed molecules
- Method Notes: Plasma protein binding by equilibrium dialysis, mouse plasma
- Format: in vitro ADME
- Condition Set: 37° C.
Note: the reply should be a number with no unit written.

INSERT INTO measurements (molecule, result_value) VALUES
  ('O=c1[nH]cc(-c2cc([C@H]3C[C@@H]3CF)c(Cl)nn2)c(=O)[nH]1 [Compound 1]', 0.474),
  ('O=c1[nH]cc(-c2cc([C@H]3C[C@@H]3C(F)F)c(Cl)nn2)c(=O)[nH]1 [Reference compound 2, reference compound]', 0.261);

Data request: Determine its reported fraction unbound at 5 h, 1 μM: Cc1nnc(-c2c[nH]c(=O)[nH]c2=O)cc1[C@H]1C[C@@H]1C(C)C [Reference compound 3, reference compound]
Data returned: 0.122

====

- Method Notes: Pharmacokinetic test on dogs
- Assay type: in vivo, male Beagle dogs
- Condition Set: male, Beagle, plasma, po; dog, orally intragastric 5 mg/kg
Readings of Cmax for the listed compounds
Please give a number only; it is taken to be in ng/mL.

Record excerpt, results attached:
INSERT INTO assay_data (compound, result_value) VALUES
  ('O=c1[nH]cc(-c2cc([C@@H]3C[C@H]3C(F)(F)F)c(Cl)nn2)c(=O)[nH]1', 7550),
  ('Cc1nnc(-c2c[nH]c(=O)[nH]c2=O)cc1[C@H]1C[C@@H]1C(C)C [Reference compound 3, reference compound]', 1200);

Data request: Determine its reported Cmax: O=c1[nH]cc(-c2cc([C@H]3C[C@@H]3C(F)F)c(Cl)nn2)c(=O)[nH]1 [Reference compound 2, reference compound]
Data returned: 3620

Data request: Determine its reported Cmax: `O=c1[nH]cc(-c2cc([C@H]3C[C@@H]3CF)c(Cl)nn2)c(=O)[nH]1`
Data returned: 5480

Data request: Determine its reported Cmax: `O=c1[nH]cc(-c2cc([C@H]3C[C@@H]3COC(F)(F)F)c(Cl)nn2)c(=O)[nH]1`
Data returned: 5710

====

- Target Desc: Human-CD73 enzyme (Homo sapiens (Human), UniProt P21589)
- Sequence (P21589 27-574): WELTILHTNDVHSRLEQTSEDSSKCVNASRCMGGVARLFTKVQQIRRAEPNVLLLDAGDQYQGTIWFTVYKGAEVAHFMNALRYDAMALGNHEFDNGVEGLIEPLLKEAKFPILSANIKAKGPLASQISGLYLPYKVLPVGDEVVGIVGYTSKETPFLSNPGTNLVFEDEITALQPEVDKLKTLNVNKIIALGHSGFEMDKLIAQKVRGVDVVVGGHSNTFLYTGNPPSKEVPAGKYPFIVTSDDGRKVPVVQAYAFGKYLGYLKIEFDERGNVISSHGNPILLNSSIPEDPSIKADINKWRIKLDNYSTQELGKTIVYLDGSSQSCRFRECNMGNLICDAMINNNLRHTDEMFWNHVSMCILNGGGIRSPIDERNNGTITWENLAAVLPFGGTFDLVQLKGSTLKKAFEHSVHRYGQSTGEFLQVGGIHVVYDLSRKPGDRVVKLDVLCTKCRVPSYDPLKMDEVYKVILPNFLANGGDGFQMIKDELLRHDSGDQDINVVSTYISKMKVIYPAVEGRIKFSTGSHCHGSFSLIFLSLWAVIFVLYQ
- Method Notes: In vitro inhibitory activity to recombinant human CD73 enzyme (ATP-GLO)
- Condition Set: Human-CD73 0.1 μg/mL, AMP 100 μM
Readings of IC50 for the listed compounds
Please give a number only; it is taken to be in nM.

Record excerpt, results attached:
INSERT INTO results (structure_smiles, experimental_readout, unit_tag, result_value) VALUES
  ('CC(C)OC[C@H]1C[C@@H]1c1cc(-c2c[nH]c(=O)[nH]c2=O)nnc1Cl', 'IC50', 'nM', 164),
  ('CCOC[C@H]1C[C@@H]1c1cc(-c2c[nH]c(=O)[nH]c2=O)nnc1Cl', 'IC50', 'nM', 173);

Data request: Determine its reported IC50: `O=c1[nH]cc(-c2cc([C@@H]3C[C@H]3C(F)(F)F)c(Cl)nn2)c(=O)[nH]1`
Data returned: 58.4

====

- Method Notes: Pharmacokinetic test on mice
- Format: in vivo, male ICR mice
- Condition Set: male, ICR, plasma; mouse, intravenous injection 3 mg/kg
Experimental Readout: half-life (h)
Please give a number only; it is taken to be in h.

Record excerpt, results attached:
INSERT INTO measurements (compound, experimental_readout, unit_tag, result_value) VALUES
  ('Cc1nnc(-c2c[nH]c(=O)[nH]c2=O)cc1[C@H]1C[C@@H]1C(C)C [Reference compound 3, reference compound]', 'half-life', 'h', 0.28),
  ('O=c1[nH]cc(-c2cc([C@H]3C[C@@H]3C(F)(F)F)c(Cl)nn2)c(=O)[nH]1', 'half-life', 'h', 3.72),
  ('O=c1[nH]cc(-c2cc([C@@H]3C[C@H]3C(F)(F)F)c(Cl)nn2)c(=O)[nH]1', 'half-life', 'h', 3.68);

Okay, now this compound:
Data request: Determine its reported half-life: `O=c1[nH]cc(-c2cc([C@H]3C[C@@H]3CC(F)F)c(Cl)nn2)c(=O)[nH]1`
Data returned: 1.82

====

- Method Notes: Pharmacokinetic test on mice
- Type: in vivo, male ICR mice
- Condition Set: male, ICR, plasma; mouse, intravenous injection 3 mg/kg
Experimental Readout: clearance (mL/min/kg)
Please give a number only; it is taken to be in mL/min/kg.

Record excerpt, results attached:
INSERT INTO assay_data (compound, result_value) VALUES
  ('O=c1[nH]cc(-c2cc([C@H]3C[C@@H]3C(F)(F)F)c(Cl)nn2)c(=O)[nH]1 [Compound 3]', 3.67),
  ('O=c1[nH]cc(-c2cc([C@H]3C[C@@H]3C(F)F)c(Cl)nn2)c(=O)[nH]1 [Reference compound 2, reference compound]', 22),
  ('O=c1[nH]cc(-c2cc([C@@H]3C[C@H]3C(F)(F)F)c(Cl)nn2)c(=O)[nH]1 [Compound 4]', 3.33),
  ('O=c1[nH]cc(-c2cc([C@H]3C[C@@H]3CC(F)F)c(Cl)nn2)c(=O)[nH]1 [Compound 18]', 10.3),
  ('O=c1[nH]cc(-c2cc([C@H]3C[C@@H]3COC(F)(F)F)c(Cl)nn2)c(=O)[nH]1 [Compound 11]', 7.83);

Data request: Determine its reported clearance: Cc1nnc(-c2c[nH]c(=O)[nH]c2=O)cc1[C@H]1C[C@@H]1C(C)C [Reference compound 3, reference compound]
Data returned: 70

Data request: Determine its reported clearance: Cc1nnc(-c2c[nH]c(=O)[nH]c2=O)cc1[C@H]1C[C@@H]1C(F)F [Reference compound 1, reference compound]
Data returned: 85.2

====

- Method Notes: Plasma protein binding by equilibrium dialysis, human plasma
- Type: in vitro ADME
- Condition Set: 37° C.
Readings of fraction unbound at 5 h, 1 μM for the listed compounds
Note: the reply should be a number with no unit written.

Record excerpt, results attached:
INSERT INTO results (compound, result_value) VALUES
  ('O=c1[nH]cc(-c2cc([C@H]3C[C@@H]3C(F)F)c(Cl)nn2)c(=O)[nH]1 [Reference compound 2, reference compound]', 0.098),
  ('Cc1nnc(-c2c[nH]c(=O)[nH]c2=O)cc1[C@H]1C[C@@H]1C(C)C [Reference compound 3, reference compound]', 0.103);

Data request: Determine its reported fraction unbound at 5 h, 1 μM: O=c1[nH]cc(-c2cc([C@H]3C[C@@H]3CF)c(Cl)nn2)c(=O)[nH]1 [Compound 1]
Data returned: 0.274

====

Readings of half-life for the listed molecules
- Method Notes: Pharmacokinetic test on dogs
- Format: in vivo, male Beagle dogs
- Condition Set: male, Beagle, plasma; dog, intravenous injection 1 mg/kg
Please give a number only; it is taken to be in min.

INSERT INTO results (molecule, unit_tag, result_value) VALUES
  ('O=c1[nH]cc(-c2cc([C@H]3C[C@@H]3COC(F)(F)F)c(Cl)nn2)c(=O)[nH]1 [Compound 11]', 'min', 53.4);

Okay, now this molecule:
Data request: Determine its reported half-life: O=c1[nH]cc(-c2cc([C@H]3C[C@@H]3C(F)F)c(Cl)nn2)c(=O)[nH]1 [Reference compound 2, reference compound]
Data returned: 82.2

====

- Method Notes: Pharmacokinetic test on dogs
- Assay type: in vivo, male Beagle dogs
- Condition Set: male, Beagle, plasma; dog, intravenous injection 1 mg/kg; read-out: Vz
Experimental Readout: Vd (L/kg)
Please give a number only; it is taken to be in L/kg.

Record excerpt, results attached:
INSERT INTO measurements (compound, experimental_readout, result_value) VALUES
  ('Cc1nnc(-c2c[nH]c(=O)[nH]c2=O)cc1[C@H]1C[C@@H]1C(C)C [Reference compound 3, reference compound]', 'Vd', 1.14),
  ('O=c1[nH]cc(-c2cc([C@@H]3C[C@H]3C(F)(F)F)c(Cl)nn2)c(=O)[nH]1', 'Vd', 0.95),
  ('O=c1[nH]cc(-c2cc([C@H]3C[C@@H]3CF)c(Cl)nn2)c(=O)[nH]1', 'Vd', 0.99),
  ('O=c1[nH]cc(-c2cc([C@H]3C[C@@H]3C(F)F)c(Cl)nn2)c(=O)[nH]1 [Reference compound 2, reference compound]', 'Vd', 1.33);

Data request: Determine its reported Vd: `O=c1[nH]cc(-c2cc([C@H]3C[C@@H]3COC(F)(F)F)c(Cl)nn2)c(=O)[nH]1`
Data returned: 0.66
